These measurements were taken from PubChem BioAssay.

Test: viability loss with induced miR-34 in A549 – imaging, A549 dox-inducible miR-34, nuclei and caspase counts, primary screen (AID 1347080); note: test concentration not given here
Settings: A549 miR-34 inducible, Hoechst nuclei count, 48 h; measured here: total cells with miR-34 induction; stronger effect = lower value
Simple rule here: cell count less than 6000 is Yes, otherwise No.

CN(C)CC(O)Cn1c2ccc(Br)cc2c2cc(Br)ccc21 (stereo not drawn) : Yes
O=C1OC(CN2CCOCC2)CN1N=Cc1ccc([N+](=O)[O-])o1 (stereo not drawn) : No

Query :: Would you kindly verify if cell count of N[C@@H](Cc1ccc(O)c(I)c1)C(=O)O is strictly less than 6000?
Result :: No

Query :: Next entry: O=C1c2cccc3c2C(CCC3)CN1C1CN2CCC1CC2 (stereo not drawn)
Result :: Yes

Query :: Next entry: Cc1csc(CNC(=O)Cc2csc(-c3ccccc3)n2)n1
Result :: No

Query :: Next entry: COC(=O)[C@]12CCC(C)(C)C[C@@H]1[C@@H]1C(=O)C=C3[C@]4(C)C=C(C#N)C(=O)C(C)(C)[C@@H]4CC[C@@]3(C)[C@]1(C)CC2
Result :: Yes

Query :: Next entry: Cc1cc(NC(=O)c2cccc(NC(=O)C=CCN(C)C)c2)ccc1Nc1nccc(-c2cccnc2)n1
Result :: No

Query :: Next entry: C=CCNc1ncnc2ccc(Br)cc12
Result :: No
